Answer each item with its documented MTD50.
test system: Vero; assay: In vitro cytotoxicity against VERO cells.; assay type: functional, Chlorocebus sabaeus
Give bare numbers, in µg/mL.

Worked cases, MTD50 given:
COc1ccc(-c2cn(C)cc2[N+](=O)[O-])c(Cl)c1 : 2
CCOC(=O)c1cn(Cc2ccccc2)cc1-c1ccc(OC)cc1 : 8

Respectfully, I request MTD50 for each entry included below.
1. CCOC(=O)c1cn(Cc2ccc(F)cc2)cc1-c1ccc(OC)cc1
2. O=[N+]([O-])c1c[nH]cc1-c1cccc(Cl)c1Cl
3. O=[N+]([O-])c1c(Cl)cccc1-c1c[nH]cc1Cl
4. NC(=O)c1c[nH]cc1-c1ccc(Cl)cc1Cl

Key:
2
1
8
0.125

Batch: MTD50 for all items listed.
1. OCc1cn(Cc2ccccc2Cl)cc1-c1ccc(Cl)cc1
2. O=C(O)c1cn(Cc2ccc(Cl)cc2)cc1-c1ccc(Cl)cc1
3. NNC(=O)c1ccncc1

Key:
1: 15; 2: 8; 3: 32

Take each entry in turn and give its MTD50.
1. COc1ccc(-c2c[nH]cc2[N+](=O)[O-])c(Cl)c1
2. CCOC(=O)c1cn(Cc2ccc(F)cc2)cc1-c1ccccc1
3. NC(=O)c1c[nH]cc1-c1ccc(Cl)cc1

Key:
[2, 4, 16]

---

tested on: Vero; test: In vitro cytotoxicity against VERO cells.; type: functional, Chlorocebus sabaeus
For each of the molecules below, state its log10 of MTD50.
Answers are given as log10 of MTD50 in µg/mL.

O=[N+]([O-])c1c[nH]cc1-c1ccc(Cl)cc1Cl : 0.00
CCOC(=O)c1c[nH]cc1-c1ccc(Cl)cc1 : 0.60
O=[N+]([O-])c1c[nH]cc1-c1ccc(Cl)c(Cl)c1 : 0.30
CN[C@@H]1[C@H](O[C@H]2[C@H](O[C@H]3[C@H](O)[C@@H](O)[C@H](N=C(N)N)[C@@H](O)[C@@H]3N=C(N)N)O[C@@H](C)[C@]2(O)C=O)O[C@@H](CO)[C@H](O)[C@H]1O : 2.11
O=[N+]([O-])c1c[nH]cc1-c1cc(Cl)cc(Cl)c1 : 0.00

Batch request: log10 of MTD50 per item, same order as input.
1. NNC(=O)c1c[nH]cc1-c1ccc(Cl)cc1
2. CCOC(=O)c1c[nH]cc1-c1ccc(Cl)cc1Cl

Key:
1. 1.20
2. 0.30

---

system: Mycobacterium marinum; assay: Antimycobacterial activity against Mycobacterium marinum CIP 6423; format: functional
READOUT_KIND: MIC

A selection of reference data follows.
CN[C@@H]1[C@H](O[C@H]2[C@H](O[C@H]3[C@H](O)[C@@H](O)[C@H](N=C(N)N)[C@@H](O)[C@@H]3N=C(N)N)O[C@@H](C)[C@]2(O)C=O)O[C@@H](CO)[C@H](O)[C@H]1O : 32 µg/mL
Cn1cc(-c2ccc(Cl)cc2)c([N+](=O)[O-])c1 : > 16 µg/mL
CCOC(=O)c1cn(Cc2ccccc2)cc1-c1ccc(OC)cc1 : > 16 µg/mL

In the following, a different compound is considered.
Exercise: Provide the reported MIC (system: Mycobacterium marinum) for O=[N+]([O-])c1c[nH]cc1-c1ccccc1Cl
Key: > 16 µg/mL

Numbers sourced from ChEMBL document CHEMBL1130637.
